SYSTEM_UNDER_TEST: GSK3b (GST-full length GSK3b) (Homo sapiens (Human))
PROTOCOL_DESCRIPTION: GSK3b TR-FRET kinase assay
Type: biochemical
APPLIED_CONDITIONS: read-out: GSK3-B (TR-FRET 1 mM ATP); GMean; IC50; 1 mM ATP; geometric mean
OUTCOME_MEASURE: IC50

In the examples that follow, each entry is paired with its recorded IC50.
1. CCC1(c2cccc(-c3c(C)nnn3C)c2)C2=C(CC(C)(C)CC2=O)Nc2n[nH]cc21 (stereo not shown) [Compound 946099] :: 100 to 1000 nM
2. CC[C@]1(c2cccc(S(=O)(=O)C3CC3)c2)C2=C(CC(C)(C)NC2=O)Nc2[nH]nc(C(F)(F)F)c21 :: 100 to 1000 nM
3. CCC1(c2cccc(-c3cn(C)nc3C)c2)C2=C(CC(C)(C)C2=O)Nc2n[nH]cc21 (stereo not shown) :: > 5000 nM

// below: IC50 requested for another compound
Using the record for CCC1(c2cccc(S(=O)(=O)C3CC3)c2)C2=C(CC(C)(C)CC2=O)Nc2n[nH]cc21 (stereo not shown) [Compound 912171] , report its IC50.
100 to 1000 nM

###

IC50 by entry:
SYSTEM_UNDER_TEST: GSK3b (GST-full length GSK3b) (Homo sapiens (Human), UniProt P49841)
Sequence (P49841 whole entry): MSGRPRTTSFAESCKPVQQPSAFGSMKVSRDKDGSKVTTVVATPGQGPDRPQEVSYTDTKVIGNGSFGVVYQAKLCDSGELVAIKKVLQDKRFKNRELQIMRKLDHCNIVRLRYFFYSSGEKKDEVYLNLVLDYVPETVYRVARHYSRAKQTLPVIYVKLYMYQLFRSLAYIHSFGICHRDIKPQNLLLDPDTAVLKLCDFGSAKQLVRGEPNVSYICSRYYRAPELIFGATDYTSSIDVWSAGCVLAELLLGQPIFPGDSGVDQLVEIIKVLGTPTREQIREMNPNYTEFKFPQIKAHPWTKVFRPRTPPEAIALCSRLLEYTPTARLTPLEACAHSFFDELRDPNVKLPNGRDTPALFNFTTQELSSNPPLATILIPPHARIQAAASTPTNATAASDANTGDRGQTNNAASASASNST
PROTOCOL_DESCRIPTION: GSK3b TR-FRET kinase assay
Format: biochemical
APPLIED_CONDITIONS: 1 nM GSK3b, 2 μM ATP, 30 minute preincubation; geometric mean; read-out: GSK3-B TR-FRET BIOCHEMICAL (TR-FRET); GMean; IC50

A selection of reference data follows.
1. CCC1(c2cccc(-c3cnn4c3CCCC4)c2)C2=C(CC(C)(C)NC2=O)Nc2n[nH]cc21 (stereo not shown) [Compound 947415] :: > 5000 nM
2. CC[C@@]1(c2cccc(-c3ccncc3C)c2)C2=C(C[C@@]3(CCCOC3)NC2=O)Nc2n[nH]cc21 [Compound 947911] :: ≤ 100 nM
3. CCC1(c2cccc(N3CCCCC3)c2)C2=C(CC(C)(C)CC2=O)Nc2n[nH]c(C)c21 (stereo not shown) [Compound 877311] :: ≤ 100 nM

We next turn to a different compound, shown below.
If you can, please state the reported IC50 value of CC1(C)CC(=O)C2=C(C1)Nc1n[nH]cc1[C@@]2(C)c1cc(C(F)(F)F)ccc1F [Compound 816797] .
> 5000 nM

###

SYSTEM_UNDER_TEST: UniProt P49841
PROTOCOL_DESCRIPTION: GSK3b TR-FRET kinase assay
Format: biochemical
APPLIED_CONDITIONS: 1 nM GSK3b, 2 μM ATP, 30 minute preincubation; geometric mean; read-out: GSK3-B TR-FRET BIOCHEMICAL (TR-FRET); GMean; IC50
Listing: IC50 of selected molecules

Reference set (10 entries):
1. CCC1(c2cccc(-c3c(C)nn(C)c3C)c2)C2=C(CC(C)(C)NC2=O)Nc2n[nH]c(C)c21 (stereo not drawn) [Compound 947575] :: ≤ 100 nM
2. CCC1(c2cccc(-c3ccncc3)c2)C2=C(CC(C)CC2=O)Nc2n[nH]cc21 (stereo not drawn) [Compound 874316] :: 1000 to 5000 nM
3. CC1(C)CC(=O)C2=C(C1)Nc1n[nH]c(C(F)(F)F)c1C21CCCOc2ccccc21 (stereo not drawn) [Compound 790632] :: > 5000 nM
4. CCC1(c2cccc(-c3ccncc3C)c2)C2=C(CC(C)(C)NC2=O)Nc2n[nH]c(C(F)(F)F)c21 (stereo not drawn) [Compound 947814] :: ≤ 100 nM
5. CCC1(c2cccc(S(=O)(=O)C(C)C)c2)C2=C(CC(C)(C)NC2=O)Nc2n[nH]c(C(F)(F)F)c21 (stereo not drawn) [Compound 947800] :: ≤ 100 nM
6. CC[C@]1(c2ccccc2)C2=C(C[C@@](C)(COC)CC2=O)Nc2n[nH]cc21 [Compound 816873] :: 1000 to 5000 nM
7. CCC1(c2cccc(Cl)c2)C2=C(CC(C)(C)CC2=O)Nc2n[nH]c(C)c21 (stereo not drawn) [Compound 790611] :: > 5000 nM
8. CC[C@]1(c2ccccc2)C2=C(C[C@H](C)CC2=O)Nc2n[nH]cc21 [Compound 789013] :: > 5000 nM
9. CC[C@]1(c2cccc(C(F)(F)F)c2)C2=C(CCN(c3ccc(OC)cc3)C2=O)Nc2n[nH]cc21 [Compound 948227] :: > 5000 nM
10. CCC1(c2cccc(-c3cc(C)nnc3C)c2)C2=C(CC(C)(C)NC2=O)Nc2n[nH]c(C)c21 (stereo not drawn) [Compound 948765] :: ≤ 100 nM

What does the data say about its IC50? Entry: CCC1(c2cccc(-c3ccnn3C)c2)C2=C(CC3(CCOC3)NC2=O)Nc2n[nH]cc21 (stereo not drawn) [Compound 948016]
> 5000 nM

Value lookup for IC50; key = CCC1(c2cccc(-c3ccnc(C)c3C)c2)C2=C(CC(C)(C)NC2=O)Nc2n[nH]c(C)c21 (stereo not drawn) [Compound 948187]
≤ 100 nM

// returns reported IC50 for input CCC1(c2ccccc2)C2=C(CC3(CCCC3)CC2=O)Nc2n[nH]cc21 (stereo not drawn) [Compound 785737]
100 to 1000 nM

Which IC50 value belongs to CCC1(c2cccc(-c3ccnc(C)c3)c2)C2=C(CC3(CCOCC3)NC2=O)Nc2n[nH]cc21 (stereo not drawn) [Compound 948524] ?
> 5000 nM

Return reported IC50; argument: CCC1(c2cccc(-c3ccnn3C)c2)C2=C(CC3(CCC3)NC2=O)Nc2n[nH]cc21 (stereo not drawn) [Compound 948522]
> 5000 nM

###

SYSTEM_UNDER_TEST: UniProt:P49841
PROTOCOL_DESCRIPTION: GSK3b TR-FRET kinase assay
Format: biochemical
APPLIED_CONDITIONS: 1 nM GSK3b, 2 μM ATP, 30 minute preincubation; geometric mean; read-out: GSK3-B TR-FRET BIOCHEMICAL (TR-FRET); GMean; IC50
pIC50: −log10 of the molar value.
OUTCOME_MEASURE: pIC50

The cases that follow already have their pIC50 on record.
1. CCC1(c2cccc(-c3ccnn3C)c2)C2=C(CC(C)(COC)NC2=O)Nc2n[nH]cc21 (centres unmarked) [Compound 947905] :: 6.00 to 7.00
2. CCC1(c2cccc(-c3ccncc3OC3CC3)c2)C2=C(CC(C)(C)NC2=O)Nc2n[nH]cc21 (centres unmarked) [Compound 948656] :: < 5.30
3. CCC1(c2cccc(-c3ccnn3C)c2)C2=C(CC3(CCOC3)NC2=O)Nc2n[nH]cc21 (centres unmarked) [Compound 948014] :: < 5.30
4. CCC1(c2cccc(-c3ccnc(C)c3)c2)C2=C(CC(C)(C)NC2=O)Nc2n[nH]c(C)c21 (centres unmarked) [Compound 947798] :: 6.00 to 7.00
5. CC1(C)CC(=O)C2=C(C1)Nc1n[nH]c(C3(C(F)(F)F)CC3)c1C21CCc2c(F)cccc21 (centres unmarked) [Compound 816840] :: 6.00 to 7.00
6. CCC1(c2cccc(-c3ccncc3F)c2)C2=C(CC(C)(C)NC2=O)Nc2n[nH]c(F)c21 (centres unmarked) [Compound 948999] :: 6.00 to 7.00

I'd like to know its pIC50. The molecule in question is CCC1(c2ccc(F)cc2)C2=C(CC(C)(C)CC2=O)Nc2n[nH]cc21 (centres unmarked) [Compound 772965]
< 5.30

Recorded pIC50 of CCC1(c2cccc(-c3ccncn3)c2)C2=C(CC(C)(C)CC2=O)Nc2n[nH]cc21 (centres unmarked) [Compound 810488] , please.
6.00 to 7.00

###

SYSTEM_UNDER_TEST: GSK3α (GST-full length GSK3α) (Homo sapiens (Human), UniProt P49840)
Sequence (P49840 whole entry): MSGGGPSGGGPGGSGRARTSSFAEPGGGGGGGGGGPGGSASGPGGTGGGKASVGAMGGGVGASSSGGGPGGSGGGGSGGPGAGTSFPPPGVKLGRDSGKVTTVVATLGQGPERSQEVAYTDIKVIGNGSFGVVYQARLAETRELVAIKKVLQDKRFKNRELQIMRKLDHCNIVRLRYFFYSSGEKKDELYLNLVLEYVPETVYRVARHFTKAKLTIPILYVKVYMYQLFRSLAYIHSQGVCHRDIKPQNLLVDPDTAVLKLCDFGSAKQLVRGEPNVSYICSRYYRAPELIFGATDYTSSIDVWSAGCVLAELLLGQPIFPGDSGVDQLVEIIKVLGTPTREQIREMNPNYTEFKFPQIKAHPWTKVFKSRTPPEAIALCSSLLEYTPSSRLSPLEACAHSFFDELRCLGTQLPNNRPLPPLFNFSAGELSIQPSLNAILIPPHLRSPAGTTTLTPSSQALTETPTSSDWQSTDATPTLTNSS
PROTOCOL_DESCRIPTION: GSK3α TR-FRET kinase assay
Assay type: biochemical
APPLIED_CONDITIONS: 1 nM GSK3α, 4 μM ATP, 30 minute preincubation, Table 16; read-out: GSK3-A TR-FRET BIOCHEMICAL (TR-FRET)
Each entry below lists one item and its recorded IC50 value.

1. CC1(C)CC(=O)C2=C(C1)Nc1n[nH]cc1[C@]21CCCOCC1 :: ≤ 100 nM
2. CCC1(c2cccc(-c3ccnc(C)c3C)c2)C2=C(CC(C)(C)CC2=O)Nc2n[nH]c(C(F)(F)F)c21 (stereo not drawn) [Compound 947328] :: 100 to 1000 nM
3. Cc1noc(C2CCC3(CC2)C2=C(CC(C)(C)CC2=O)Nc2n[nH]cc23)n1 (stereo not drawn) :: 100 to 1000 nM
4. C[C@@H]1C[C@@]2(CCN1S(=O)(=O)c1ccn(C)n1)C1=C(CC(C)(C)CC1=O)Nc1n[nH]cc12 :: ≤ 100 nM
5. CC1(C)CC(=O)C2=C(C1)Nc1n[nH]cc1[C@]21C[C@H](OCc2ccccc2)C1 :: 100 to 1000 nM

So what's the measured IC50 for this one? CC[C@@]1(c2cccc(-c3cnc(C)n3C)c2)C2=C(CC(C)(C)CC2=O)Nc2n[nH]cc21
≤ 100 nM

What measured IC50 goes with CC1(C)CC(=O)C2=C(Nc3n[nH]cc3C23CCN(S(=O)(=O)C2CC2)CC3)C1F (stereo not drawn) ?
≤ 100 nM

So what does the record say about IC50 for COc1cccc(S(=O)(=O)N2CCCC3(CC2)C2=C(CC(C)(C)CC2=O)Nc2n[nH]cc23)c1 (stereo not drawn) ?
≤ 100 nM

Consider the compound CC[C@]1(c2cccc(-c3ccnc(C)c3OC)c2)C2=C(CC(C)(C)CC2=O)Nc2n[nH]cc21 and give its measured IC50.
≤ 100 nM

// lookup IC50 for CCC1(c2cccc(C(C)c3ncccn3)c2)C2=C(CC(C)(C)CC2=O)Nc2n[nH]cc21 (stereo not drawn) [Compound 948057]
100 to 1000 nM

Give the measured IC50 of CCC1(c2cccc(-c3c(F)cncc3OC)c2)C2=C(Nc3n[nH]cc31)C(F)C(C)(C)CC2=O (stereo not drawn) [Compound 948547] .
≤ 100 nM

So what does the record say about IC50 for Cc1cc(S(=O)(=O)N2CCC3(CC2)C2=C(CC(C)(C)CC2=O)Nc2n[nH]cc23)ccc1Cl ?
≤ 100 nM

FYI, the data here is from patent US20250313563A1.
